Listed below: TGI values for each entry.
# System: SK-MEL-5 melanoma
# assay_comment: NCI tumour cell line growth inhibition, 48 h
test_readout: TGI

> print(dat)
                                    molecule     value
 1  C=CCN1C(N)=C(C#N)C(C#N)(C#N)C1CCC (configuration not stated)  > 100 µM
 2          COc1ccc(C(=O)O)c(Br)c1OCc1ccccc1  > 100 µM
 3  CC(NC(=O)OC(C)(C)C)C(=O)NC(Cc1ccccc1)C(=O)NCC(=O)ON=C1CCCC1 (configuration not stated)  > 100 µM
 4  C#C[C@]1(O)CCC2C3CCc4cc(Oc5nc(F)nc(-n6c(C)nc7cc8ccccc8cc76)n5)ccc4C3CCC21C (some centres not stated)  > 100 µM
 5  O=C(NCCCN1CCC(N2CCCCC2)CC1)C1=Cc2cc(Br)ccc2OC1   3.61 µM
 6  CC1(C(=O)Nc2ccc3cc4ccccc4cc3c2)CC2(C)CC(C)(C1)C(O)NC2=O (configuration not stated)  > 100 µM
 7  O=[N+]([O-])c1ccc(OCc2nnc(CCCCCCCCc3nnc(COc4ccc([N+](=O)[O-])cc4)o3)o2)cc1  > 100 µM
 8                  NCCNS(=O)(=O)c1ccc(N)cc1  > 100 µM
 9          N#C/C(=C/NC(=S)NCc1ccccc1)C(N)=O  > 100 µM
10  COc1ccc(-c2nc(N)n(C)c2SSc2c(-c3ccc(OC)cc3)nc(N)n2C)cc1   4.15 µM
11  Cc1cc(C)c2c(c1)CC1(Cc3c(ccc(C)c3C)C1=O)C2=O (configuration not stated)  > 100 µM
12  C=C1CCC(OC(C)=O)C2(C)C(OC(C)=O)CC3OC3(C)C2C(OC(C)=O)C2C(C)C(=O)OC2C1Cl (configuration not stated)  > 100 µM
13      CCCCCCN1C(=O)CC(=O)N(CCCCCC)S1(=O)=O   44.2 µM
14  COc1ccc(N2C(Cl)C(=O)C2c2c[nH]c3ccccc23)cc1 (configuration not stated)  > 100 µM
15  Cc1cc(S(=O)(=O)NC2=NCC(C)NN2)c(S)cc1Cl (configuration not stated)  > 100 µM
16  CCNCC(O)COc1ccc2c(c1)[n+]([O-])nc(N)[n+]2[O-] (configuration not stated)  > 100 µM
17  CS(=O)(=O)CCN(CC#N)Cc1ccc(-c2ccc3ncnc(Nc4ccc(OCc5cccc(F)c5)c(Cl)c4)c3c2)o1   > 25 µM
18  Cc1ncc(C(=O)Nc2ccc(CN3CCN(C)CC3)c(C(F)(F)F)c2)cc1C#Cc1c(N)ncc2ccc(F)cc12   1.53 µM
19    Cc1cc2c(=O)cc(-c3cccs3)oc2c(C(=O)O)c1C  > 100 µM
20  COc1cc2c3c(c1O)-c1c(ccc(OC)c1OC)CC3N(C)CC2 (configuration not stated)  > 100 µM
21  COc1cc2c(cc1OC)C(C#N)(Cc1ccccc1)N(C(=O)c1ccccc1)C=C2 (configuration not stated)   62.9 µM
22  COc1cc2c(/C=C3\C(=O)N(C)c4ccc(O)cc43)c[nH]c2cc1C   13.2 µM
23      O=C1OC(c2ccccc2)=N/C1=C\c1ccc(Cl)cc1  > 100 µM
24  CSc1nc(N)cc(Oc2ccc(-c3nc(Nc4cccc(C(F)(F)F)c4)n[nH]3)cc2)n1   1.57 µM
25         N#Cc1c(N2CCCC2)ncn(-c2ccccc2)c1=S  > 100 µM
26            CCSc1cc(C(=O)OC)c2n(c1=O)CCCC2  > 100 µM
27                 Nc1nc(Cl)nc(NCc2ccccc2)n1  > 100 µM
28  COc1cccc2c(=O)c3c(n(C)c12)OC(C(C)C)C3 (configuration not stated)  > 100 µM
29     N[C@H]1C[C@@H]1c1ccc(-c2cccc(O)c2)cc1   30.2 µM
30    COc1ccc2c(c1)CCc1c(C(C)=O)c3ccccc3n1C2  > 100 µM
31            CCCCCCCCCCCCCCCCCCOP1(=O)OCCO1  > 100 µM
32  COc1cc(/C=C2\C[C@H]3[C@@H]4CC=C5C[C@@H](OC(C)=O)CC[C@]5(C)[C@H]4CC[C@]3(C)\C2=N\O)cc(OC)c1OC   14.7 µM
33            NC(N)=N/N=C\c1ccc(C2CCNCC2)cc1  > 100 µM
34  COc1cccc2c1C(=O)c1c(O)c3c(c(O)c1C2=O)C[C@@](O)(C(C)=O)C[C@@H]3O[C@H]1C[C@H](N)[C@H](O)[C@H](C)O1  0.143 µM
35  CC1CC(NN)=Nc2ccccc2N1 (configuration not stated)  > 100 µM
36   Clc1ccc(Nc2nnc(CNc3ccccc3)c3ccccc23)cc1   5.27 µM
37  CC(C)C1(Cl)CCC2C3(C)CCCC(C)(C(=O)O)C3CC(Cl)C2(Cl)C1Cl (configuration not stated)   82.5 µM
38  COC(=O)C1(C(=O)OC)CC(=O)c2c(OC(=O)c3cccc(OC)c3C#N)ccc(OC(=O)c3cccc(OC)c3C#N)c2C1  > 100 µM
39  O=C(OCc1nc2nc(Cl)nc(N3CCOCC3)c2[nH]1)n1ccnc1   3.35 µM
40  CC(C)/C=N\N1C(N)=C(C#N)C(C#N)(C#N)C1C(C)C (configuration not stated)  > 100 µM
41  CCN(CC)CCCNc1[nH]ncc2cc3c(nc4ccc(OC)cc43)c(C)c12   29.4 µM
42  COc1ccc(C2(O)C(S(=O)(=O)c3ccc(C)cc3)=Cc3ccc(OC)cc32)cc1 (configuration not stated)  > 100 µM

----------
# System: UO-31 renal
# assay_comment: NCI tumour cell line growth inhibition, 48 h
test_readout: TGI (µM)

> print(dat)
                                    compound  comparative.sign  value
 1  CC(C)(C)C(=O)C(C(=O)c1ccccc1)C(=O)C(C)(C)C                 >    100
 2  CC(C)c1cc2c(c(O)c1O)[C@@]1(C)CCCC(C)(C)C1=C(O)C2                 =   3.95
 3  O=C1C=C(c2[nH]c3ccccc3c2C2=CC(=O)c3ccccc3C2=O)C(=O)c2ccccc21                 >    100
 4  N#Cc1c(-c2ccc(Cl)cc2)cc(-c2ccc(Nc3ccnc4cc(Cl)ccc34)cc2)nc1N                 >    100
 5    O=c1oc2ccc(Br)cc2c(=O)n1-c1ccc(Br)cc1F                 =   2.48
 6  Cc1cc(Nc2nc(-c3ccc(F)cc3)nc3ccccc23)n[nH]1                 =     15
 7  C/C(=C1\SC(=NCc2cccs2)NC1=O)c1ccc2ncccc2c1                 >     25
 8     N[C@H]1C[C@@H]1c1ccc(-c2cccc(O)c2)cc1                 =   82.4
 9  CC1=C(C(=O)CC(=O)C(=O)Nc2cccc(C)c2C)Sc2ccccc2N1                 >    100
10  O=C1C=CC=C[C@@H]2C(C3OCCO3)CC[C@H]12.[C-]#[O+].[C-]#[O+].[C-]#[O+].[Fe] (stereo partly specified)                 >   78.4
11  COc1ccc(C2SCc3nc4ccccc4n32)cc1 (stereo unspecified)                 =   66.5

----------
# Tested on: NCI-H522 lung
# assay_comment: NCI tumour cell line growth inhibition, 48 h; in the data active means GI50 below about 0.43 µM; inactive means the rest
Labels: label 1 = active, label 0 = inactive

> print(dat)
                           molecular.string    system.name  category
1  Clc1ccc(CNc2ccc3nc(CCC4CCCCC4)[nH]c3c2)cc1  NCI-H522 lung   label 0
2  Cn1cc(-c2nonc2-c2cn(C)c3ccc(F)cc23)c2ccccc21  NCI-H522 lung   label 1
3  CS(=O)(=O)CCN(CC#N)Cc1ccc(-c2ccc3ncnc(Nc4ccc(OCc5cccc(F)c5)c(Cl)c4)c3c2)o1  NCI-H522 lung   label 0
4     N[C@H]1C[C@@H]1c1ccc(-c2cccc(O)c2)cc1  NCI-H522 lung   label 0
5  CSc1nc(N)cc(Oc2ccc(-c3nc(Nc4cccc(C(F)(F)F)c4)n[nH]3)cc2)n1  NCI-H522 lung   label 0
6           O=C(/C=C/c1cccs1)c1ccc(Cl)cc1Cl  NCI-H522 lung   label 0
7  Clc1nc(Cl)c2ncn(C/C=C\COc3cccc(OC/C=C\Cn4cnc5c(Cl)nc(Cl)nc54)c3)c2n1  NCI-H522 lung   label 0
8  C/C(=C1\SC(=NCc2cccs2)NC1=O)c1ccc2ncccc2c1  NCI-H522 lung   label 0
9  COc1cccc2c1C(=O)c1c(O)c3c(c(O)c1C2=O)C[C@@](O)(C(C)=O)C[C@@H]3O[C@H]1C[C@H](N)[C@H](O)[C@H](C)O1  NCI-H522 lung   label 1
